B1: IKZF1 (parent)
chain: HIKLHSGEKPFKCHLCNYACRRRD

# Variants of: B1
# RUN_DESCRIPTION: protein stability index of a GFP-peptide fusion (GPS, HEK-293T) (PSI 1-6); higher = more stable;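 also: lentivirally expressed fusions sorted by FACS into six bins by GFP to DsRed ratio, PSI derived from sequencing read proportions per bin multiplied by bin number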
# CONDITION_CONTEXT: c terminus: a fixed tail appended
Here, each record is paired with measured protein stability index data.
Please state the value as a number alone, without comment.

Some variants with recorded protein stability index:
C13F
2.01
R21N
1.65
I2E
1.78
C16R
2.81
K12R
2.23

Now examine the next entry.
Q. State, in one line, measured protein stability index of H14N
A. 1.69
